- EXPERIMENTAL TARGET: Cathepsin K (Homo sapiens, UniProt P43235)
- Sequence (P43235 whole entry): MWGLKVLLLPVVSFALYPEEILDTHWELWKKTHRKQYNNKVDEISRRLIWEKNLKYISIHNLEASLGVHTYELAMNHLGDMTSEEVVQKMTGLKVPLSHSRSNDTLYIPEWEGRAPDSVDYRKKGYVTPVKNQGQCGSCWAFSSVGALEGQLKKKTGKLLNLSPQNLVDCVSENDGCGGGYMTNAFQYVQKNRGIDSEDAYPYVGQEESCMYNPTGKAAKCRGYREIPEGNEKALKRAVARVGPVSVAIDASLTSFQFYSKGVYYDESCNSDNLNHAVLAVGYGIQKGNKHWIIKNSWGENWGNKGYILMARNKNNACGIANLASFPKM
Here's a roundup of pKi values tested on Cathepsin K (Homo sapiens, UniProt P43235), taken from various published works.
Interpret pKi as the negative base-10 log of the concentration measured in mol/L.

Look over these answered cases.
>>> numeric_value("CC(C)C[C@H](C(=O)NCC(=O)CNS(=O)(=O)c1ccc(Oc2ccccc2)cc1)c1cccc(-c2ccccc2)c1")
8.85
>>> numeric_value("C[C@@H](CNc1ccc(OC(F)(F)F)cc1)NC(=O)[C@H](CC1CCCCC1)NC(=O)[C@H]1CCCO1")
5.34
>>> numeric_value("CC(C)C[C@H](NC(=O)c1ccc2ccccc2n1)C(=O)N[C@H]1CCCN(S(=O)(=O)c2ccccn2)CC1=O")
9.05

q: # pKi lookup, item CC(C)C[C@H](NC(=O)c1ccc2ccccc2c1)C(=O)NC1COCC1=O (stereo not given in full)
a: 7.21

###

Below: molecules with Ki recorded for Cathepsin K (Homo sapiens, UniProt P43235) in separate published works.
Respond numerically; units are nM and should not be typed.

>>> numeric_value("CC(C)C[C@H](NC(=O)OCc1ccccc1)C(=O)NC1CCN(S(=O)(=O)c2ccc(Oc3ccccc3)cc2)CC1=O (stereo partly drawn)")
0.5
>>> numeric_value("N#CCNC(=O)[C@H](Cc1ccccc1)NC(=O)OCc1ccccc1")
260

Consider the additional molecule presented here.
q: Record request: Ki value, item CC(C)[C@@H](CNc1ccc(OC(F)(F)F)cc1)NC(=O)[C@@H](CC(=O)N1CCOCC1)CC1CCCC1
a: 1140

###

Protein target, amino acids: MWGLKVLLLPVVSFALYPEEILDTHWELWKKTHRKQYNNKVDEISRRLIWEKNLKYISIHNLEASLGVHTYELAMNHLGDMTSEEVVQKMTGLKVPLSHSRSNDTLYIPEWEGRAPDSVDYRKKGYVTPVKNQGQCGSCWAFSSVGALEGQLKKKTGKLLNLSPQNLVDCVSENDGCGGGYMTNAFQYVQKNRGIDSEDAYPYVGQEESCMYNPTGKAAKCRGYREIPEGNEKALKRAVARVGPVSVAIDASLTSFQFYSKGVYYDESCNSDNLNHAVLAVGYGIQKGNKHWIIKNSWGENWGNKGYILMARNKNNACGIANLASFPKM
// note: pKi values for the protein given by its sequence were reported in different studies
Notebook: values listed as pKi are -log10 of the concentration (mol/L).

>>> numeric_value("CCC[C@H](NC(=O)OCc1ccccc1)C(=O)c1nnc(-c2ccco2)o1")
5.52
>>> numeric_value("CC(C)C[C@@H](C(=O)NCC#N)c1cccc(-c2cccc(-c3csc(CN4CCNCC4)n3)c2)c1")
8.32
>>> numeric_value("CC(C)C[C@H](NC(=O)OCc1ccccc1)C(=O)N[C@H]1CCC[C@H](NC(=O)[C@H](CC(C)C)NC(=O)OCc2ccccc2)C1=O")
4.80
>>> numeric_value("CC(=O)N[C@@H](Cc1ccccc1)C(=O)NCC#N")
5.12
>>> numeric_value("CC(C)(C)C[C@H](NC(=O)N1CCOCC1)C(=O)NCCNc1ccc(OC(F)(F)F)cc1")
5.88

q: Give its pKi value. Item: CC(C)[C@@H](CNc1ccc(OC(F)(F)F)cc1)NC(=O)[C@@H](CC(=O)N1CCOCC1)c1ccccc1
a: 4.94
